Assay: Selectivity index, ratio of CC50 for human MT4 cells to EC50 for HIV-1 NL4-3 infected in MT4 cells
Format: toxicity, cell-based
Settings: read-out: Ratio CC50/EC50
Assign selectivity ratio to each entry below.

**Query** Returns the measured selectivity ratio for the input compound. Input: C=C(C)[C@]12C[C@@H](COC(=O)c3ccccc3)[C@]34OC5(CCCCCCC[C@H](C)[C@@H]6[C@@H]3[C@]3(O[C@]6(C)OC3=O)[C@H](O)[C@@]3(CO)O[C@H]3[C@H]4[C@H]1O5)O2
**Result** ≥ 41

**Query** Returns the measured selectivity ratio for the input compound. Input: C=C(C)[C@@]12O[C@@]3(/C=C/C=C/CCCCCCCCC)O[C@@H]1[C@@H]1[C@@H]4O[C@]4(CO)[C@@H](O)[C@]4(O)C(=O)C(C)=C[C@H]4[C@@]1(O3)[C@H](C)[C@H]2OC(C)=O
**Result** ≥ 1300

**Query** Returns the measured selectivity ratio for the input compound. Input: C=C(C)[C@]12C[C@@H](COC(=O)c3ccccc3)[C@]34OC5(CCCCCCC[C@H](C)[C@@H]6[C@@H]3[C@]3(O[C@]6(C)OC3=O)[C@H](O)[C@@]3(COC(=O)CCCCCCCCCCCCCCC)O[C@H]3[C@H]4[C@H]1O5)O2
**Result** ≥ 18

**Query** Returns the measured selectivity ratio for the input compound. Input: C=C(C)[C@]12C[C@@H](C)[C@@]34OC(/C=C/C=C/CCCCCCCCCC)(O[C@@H]1[C@@H]3[C@@H]1O[C@]1(CO)[C@@H](O)[C@]1(O)C(=O)C(C)=C[C@H]14)O2
**Result** ≥ 1280

**Query** Returns the measured selectivity ratio for the input compound. Input: C=C(C)[C@]12C[C@@H](C)[C@@]34O[C@](/C=C/C=C/CCCCCCCCC)(O[C@@H]1[C@@H]3[C@@H]1O[C@]1(CO)[C@@H](O)[C@]1(O)C(=O)C(C)=C[C@H]14)O2
**Result** ≥ 5380

**Query** Returns the measured selectivity ratio for the input compound. Input: C=C(C)[C@]12C[C@@H](COC(=O)c3ccccc3)[C@]34OC5(CCCCCCC[C@H](C)[C@@H]6[C@@H]3[C@]3(O[C@]6(C)OC3=O)[C@H](O)[C@@]3(COC(=O)CCCCCCC/C=C\C/C=C\CCCCC)O[C@H]3[C@H]4[C@H]1O5)O2
**Result** ≥ 1

**Query** Returns the measured selectivity ratio for the input compound. Input: C=C(C)[C@]12C[C@@H](C)[C@@]34OC5(CCCCCCC[C@@H](C)[C@H]6[C@H](C)[C@H](OC(=O)c7ccccc7)[C@@](O)([C@H](O)[C@@]7(CO)O[C@H]7[C@H]3[C@H]1O5)[C@@H]64)O2
**Result** ≥ 14300

**Query** Returns the measured selectivity ratio for the input compound. Input: C=C(C)[C@]1(O)C[C@@H](C)[C@@]2(O)[C@H]([C@H]1OC(=O)/C=C/C=C/CCCCCCCCC)[C@H](O)[C@@](O)(CO)[C@@H](O)[C@]1(O)C(=O)C(C)=C[C@H]12
**Result** ≥ 100

**Query** Returns the measured selectivity ratio for the input compound. Input: C=C(C)[C@]12C[C@@H](COC(=O)c3ccccc3)[C@@]34OC5(O[C@@H]1[C@@H]3[C@@H]1O[C@]1(CO)[C@@H](O)[C@@]1(O)[C@H]4[C@H]([C@H](C)[C@@H]1OC(=O)c1ccccc1)[C@H](C)CCCCCC[C@H]5O)O2
**Result** ≥ 21500
